- System: KRAS patient-derived spheroids with HUVEC/MSC, viability;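 further: spheroids exposed to agents for 7 days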
- assay remarks: Anticancer human tumor 323965-272-R-J2-PDC patient-derived pancreatic carcinoma cell line growth inhibition [KRAS2]; active means viability on the fitted dose curve at most 10% of control; inactive means the rest
- test context: second compound 10 µM; first compound 0.316 µM
# valid calls are Y (active), N (inactive); nothing else

[
  {
    "compound": "CC1(C)CCC(CN2CCN(c3ccc(C(=O)NS(=O)(=O)c4ccc(NCC5CCOCC5)c([N+](=O)[O-])c4)c(Oc4cnc5[nH]ccc5c4)c3)CC2)=C(c2ccc(Cl)cc2)C1 + C=CC(=O)N1CCN(c2nc(=O)n(-c3c(C)ccnc3C(C)C)c3nc(-c4c(O)cccc4F)c(F)cc23)C(C)C1",
    "classification": "N"
  },
  {
    "compound": "COc1cc2nccc(Oc3ccc(NC(=O)C4(C(=O)Nc5ccc(F)cc5)CC4)cc3)c2cc1OC + CC1OCC2(CCN(c3cnc(Sc4ccnc(N)c4Cl)c(N)n3)CC2)C1N",
    "classification": "N"
  },
  {
    "compound": "COC(=O)c1ccc2c(C(=Nc3ccc(N(C)C(=O)CN4CCN(C)CC4)cc3)c3ccccc3)c(O)[nH]c2c1 + CC1OCC2(CCN(c3cnc(Sc4ccnc(N)c4Cl)c(N)n3)CC2)C1N",
    "classification": "N"
  },
  {
    "compound": "CC(=O)OC12COC1CC(O)C1(C)C(=O)C(O)C3=C(C)C(OC(=O)C(O)C(NC(=O)OC(C)(C)C)c4ccccc4)CC(O)(C(OC(=O)c4ccccc4)C21)C3(C)C (stereo not given) + C=CC(=O)N1CCN(c2nc(=O)n(-c3c(C)ccnc3C(C)C)c3nc(-c4c(O)cccc4F)c(F)cc23)C(C)C1",
    "classification": "N"
  },
  {
    "compound": "CC1OCC2(CCN(c3cnc(Sc4ccnc(N)c4Cl)c(N)n3)CC2)C1N (stereo not given) + C=CC(=O)N1CCN(c2nc(=O)n(-c3c(C)ccnc3C(C)C)c3nc(-c4c(O)cccc4F)c(F)cc23)C(C)C1",
    "classification": "N"
  }
]

Per the assay record, what outcome was assigned to CC1(C)CCC(CN2CCN(c3ccc(C(=O)NS(=O)(=O)c4ccc(NCC5CCOCC5)c([N+](=O)[O-])c4)c(Oc4cnc5[nH]ccc5c4)c3)CC2)=C(c2ccc(Cl)cc2)C1 + CC1OCC2(CCN(c3cnc(Sc4ccnc(N)c4Cl)c(N)n3)CC2)C1N ?
N

Per the assay record, what outcome was assigned to CC1COCCN1c1cc(-c2ccnn2C)c2ccnc(-c3ccn[nH]3)c2n1 (stereo not given) + COc1cc2nc(C)nc(NC(C)c3cc(N)cc(C(F)(F)F)c3)c2cc1OC1CCOC1 ?
Y

Per the assay record, what outcome was assigned to CCNC(=O)CC1N=C(c2ccc(Cl)cc2)c2cc(OC)ccc2-n2c(C)nnc21 (stereo not given) + COc1cc2nc(C)nc(NC(C)c3cc(N)cc(C(F)(F)F)c3)c2cc1OC1CCOC1 ?
N

Per the assay record, what outcome was assigned to CCNC(=O)CC1N=C(c2ccc(Cl)cc2)c2cc(OC)ccc2-n2c(C)nnc21 (stereo not given) + CNCc1ccccc1-c1csc(C(C)Nc2nc(C)nc3cc(OC)c(OC)cc23)c1 ?
Y

Per the assay record, what outcome was assigned to COc1cc(Nc2ncc3c(n2)-c2ccc(Cl)cc2C(c2c(F)cccc2OC)=NC3)ccc1C(=O)O + CC1OCC2(CCN(c3cnc(Sc4ccnc(N)c4Cl)c(N)n3)CC2)C1N ?
N
